Target: human CB2R (Homo sapiens)
Construct: host or cells: CHO cells
Sequence (P34972 whole entry): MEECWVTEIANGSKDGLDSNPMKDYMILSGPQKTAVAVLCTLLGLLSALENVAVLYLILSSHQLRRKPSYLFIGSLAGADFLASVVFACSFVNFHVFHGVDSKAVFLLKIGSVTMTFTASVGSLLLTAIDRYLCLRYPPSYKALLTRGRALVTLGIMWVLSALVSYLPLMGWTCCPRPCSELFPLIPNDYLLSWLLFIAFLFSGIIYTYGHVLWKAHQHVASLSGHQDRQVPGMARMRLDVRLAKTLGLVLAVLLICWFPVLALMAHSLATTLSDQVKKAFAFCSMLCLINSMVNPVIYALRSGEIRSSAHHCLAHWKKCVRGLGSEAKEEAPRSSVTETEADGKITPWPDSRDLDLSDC
Test: CB2 cAMP (Assay 1): In vitro testing of CB2 potency
Format: cell-based
Conditions: read-out: CB2 EC50
pEC50: −log10 of the molar value.
endpoint: pEC50

{"substanceSmiles": "CN(CC1CCOCC1)C(C)(C)C(=O)Nc1nnc(C(C)(C)CO)s1", "testResult": 8.27}
{"substanceSmiles": "CN(C1CCN(S(C)(=O)=O)CC1)C(C)(C)C(=O)Nc1cc(C(C)(C)C#N)no1", "testResult": 9.64}
{"substanceSmiles": "CC(C)(CO)c1cc(NC(=O)C(C)(C)S(=O)(=O)CC2CCOCC2)on1", "testResult": 7.06}
{"substanceSmiles": "CN(CC1CCOCC1)C(C)(C)C(=O)Nc1cc(C(C)(C)CO)no1", "testResult": 9.17}

----------
Target: human CB1R (Homo sapiens, UniProt P21554)
Construct: host or cells: CHO cells
Sequence (P21554 whole entry): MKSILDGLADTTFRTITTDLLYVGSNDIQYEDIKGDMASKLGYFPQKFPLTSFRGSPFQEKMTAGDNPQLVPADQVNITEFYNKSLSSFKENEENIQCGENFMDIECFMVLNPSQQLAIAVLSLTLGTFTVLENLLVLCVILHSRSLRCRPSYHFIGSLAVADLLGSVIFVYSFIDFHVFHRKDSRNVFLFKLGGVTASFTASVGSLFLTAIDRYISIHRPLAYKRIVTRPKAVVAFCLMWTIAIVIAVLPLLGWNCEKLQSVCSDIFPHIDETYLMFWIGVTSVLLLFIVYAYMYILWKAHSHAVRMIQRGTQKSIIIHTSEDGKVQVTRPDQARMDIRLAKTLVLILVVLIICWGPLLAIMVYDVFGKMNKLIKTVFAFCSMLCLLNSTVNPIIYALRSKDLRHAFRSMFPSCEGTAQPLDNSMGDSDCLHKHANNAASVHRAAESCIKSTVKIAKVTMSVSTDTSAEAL
Test: CB1 cAMP (Assay 2): In vitro testing of CB1 potency
Type: cell-based
Conditions: read-out: CB1 EC50
pEC50: −log10 of the molar value.

{"substanceSmiles": "CN(CC1CCOCC1)C(C)(C)C(=O)Nc1nnc(C(C)(C)CO)s1", "comparisonOperator": "=", "pEC50": 3.92}
{"substanceSmiles": "COCC(C)(C)c1cc(NC(=O)C(C)(C)N(C)CC2CCOCC2)on1", "comparisonOperator": "=", "pEC50": 6.03}
{"substanceSmiles": "CN(CC1CCOCC1)C(C)(C)C(=O)Nc1cc(C(C)(C)CO)no1", "comparisonOperator": "=", "pEC50": 5.09}
{"substanceSmiles": "CN(C1CCN(S(C)(=O)=O)CC1)C(C)(C)C(=O)Nc1cc(C(C)(C)CO)no1", "comparisonOperator": "=", "pEC50": 5.51}
{"substanceSmiles": "CC(C)(C#N)c1cc(NC(=O)C(C)(C)S(=O)(=O)C2CCOCC2)on1", "comparisonOperator": "<", "pEC50": 3.70}
{"substanceSmiles": "CN(C1CCN(S(C)(=O)=O)CC1)C(C)(C)C(=O)Nc1cc(C(C)(C)C#N)no1", "comparisonOperator": "=", "pEC50": 5.60}
{"substanceSmiles": "CN(CC1CCOCC1)C(C)(C)C(=O)Nc1cc(C(C)(C)C#N)no1", "comparisonOperator": "=", "pEC50": 4.40}

----------
Target: human CB1R (Homo sapiens)
Construct: host or cells: CHO cells
Test: CB1 cAMP (Assay 2): In vitro testing of CB1 potency
Type: cell-based
Measured EC50 values are reported for all entries that follow.

{"substanceSmiles": "CC(C)(C#N)c1cc(NC(=O)C(C)(C)S(=O)(=O)CC2CCOCC2)on1", "readoutUnit": "µM", "comparisonOperator": ">", "EC50": 200}
{"substanceSmiles": "CC(C)(C#N)c1cc(NC(=O)C(C)(C)S(=O)(=O)CCCC(F)(F)F)on1", "readoutUnit": "µM", "comparisonOperator": "=", "EC50": 104}
{"substanceSmiles": "COCC(C)(C)c1cc(NC(=O)C(C)(C)S(=O)(=O)CC2CCOCC2)on1", "readoutUnit": "µM", "comparisonOperator": "=", "EC50": 8.6}
{"substanceSmiles": "CN(CC1CCOCC1)C(C)(C)C(=O)Nc1nnc(C(C)(C)C#N)s1", "readoutUnit": "µM", "comparisonOperator": ">", "EC50": 200}
{"substanceSmiles": "CC(C)(O)c1cc(NC(=O)C(C)(C)S(=O)(=O)C2CCOCC2)on1", "readoutUnit": "µM", "comparisonOperator": ">", "EC50": 200}
{"substanceSmiles": "CN(C1CCN(S(C)(=O)=O)CC1)C(C)(C)C(=O)Nc1nnc(C(C)(C)C#N)s1", "readoutUnit": "µM", "comparisonOperator": "=", "EC50": 69}
{"substanceSmiles": "CC(C)(CO)c1cc(NC(=O)C(C)(C)S(=O)(=O)C2CCOCC2)on1", "readoutUnit": "µM", "comparisonOperator": "=", "EC50": 150}
